System under test: Voltage-gated inwardly rectifying potassium channel KCNH2 (Homo sapiens, UniProt Q12809)
Sequence (Q12809 whole entry): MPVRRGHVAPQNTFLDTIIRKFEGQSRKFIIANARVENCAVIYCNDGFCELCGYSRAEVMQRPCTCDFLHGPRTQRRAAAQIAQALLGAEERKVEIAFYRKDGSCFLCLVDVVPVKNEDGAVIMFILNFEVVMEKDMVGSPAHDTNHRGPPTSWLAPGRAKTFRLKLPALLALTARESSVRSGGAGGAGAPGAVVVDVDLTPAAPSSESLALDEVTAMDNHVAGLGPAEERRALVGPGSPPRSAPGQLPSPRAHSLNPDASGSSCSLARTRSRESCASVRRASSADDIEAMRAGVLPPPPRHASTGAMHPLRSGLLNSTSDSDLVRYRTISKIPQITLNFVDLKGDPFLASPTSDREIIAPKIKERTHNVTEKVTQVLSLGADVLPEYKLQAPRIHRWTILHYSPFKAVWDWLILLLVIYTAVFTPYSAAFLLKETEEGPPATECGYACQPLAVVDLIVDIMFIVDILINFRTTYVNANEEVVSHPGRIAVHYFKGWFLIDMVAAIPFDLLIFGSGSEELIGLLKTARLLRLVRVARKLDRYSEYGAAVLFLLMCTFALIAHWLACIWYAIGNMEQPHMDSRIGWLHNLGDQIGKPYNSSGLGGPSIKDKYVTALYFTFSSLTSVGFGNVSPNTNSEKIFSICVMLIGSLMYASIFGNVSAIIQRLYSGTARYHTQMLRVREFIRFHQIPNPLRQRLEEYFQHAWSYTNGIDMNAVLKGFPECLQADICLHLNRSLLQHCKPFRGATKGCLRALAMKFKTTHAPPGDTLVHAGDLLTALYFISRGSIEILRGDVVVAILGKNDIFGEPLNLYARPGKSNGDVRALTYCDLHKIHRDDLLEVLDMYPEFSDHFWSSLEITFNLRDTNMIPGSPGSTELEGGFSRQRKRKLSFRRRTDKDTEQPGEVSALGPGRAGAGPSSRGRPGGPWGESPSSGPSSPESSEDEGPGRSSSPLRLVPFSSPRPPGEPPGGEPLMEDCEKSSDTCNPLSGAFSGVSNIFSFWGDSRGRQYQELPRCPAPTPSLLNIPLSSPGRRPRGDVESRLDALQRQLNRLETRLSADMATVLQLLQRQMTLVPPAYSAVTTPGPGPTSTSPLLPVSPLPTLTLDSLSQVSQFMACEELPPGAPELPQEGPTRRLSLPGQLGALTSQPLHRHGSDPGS
Test summary: Inhibition of human ERG by electrophysiology method
Reported endpoint: IC50 (µM)
Answers are plain numbers, in µM.

Molecule | System under test | Reported endpoint | Recorded value
Cc1c([C@@H](O)CN2CCC3(CC2)CCN(c2cnc(S(C)(=O)=O)cn2)C3)ccc2c1COC2=O | Voltage-gated inwardly rectifying potassium channel KCNH2 (Homo sapiens, UniProt Q12809) | IC50 | 22.7

Given `Cc1c([C@@H](O)CN2CCC3(CC2)CC(=O)N(c2ccc(S(C)(=O)=O)cn2)C3)ccc2c1COC2=O` , state its recorded IC50.
24
